System: A549 lung cancer cells
experiment_summary: Cell proliferation (MTT assay) in A549 lung cancer cells
Assay type: cell-based, human
test_conditions: Homo sapiens, A549, 72 h, A549 lung cancer cells, MTT, 72 h; read-out: IC50
measured_attribute: pIC50
Notebook: values listed as pIC50 are -log10 of the concentration (mol/L).

Hi! What's the reported pIC50 for Cc1cc(C)c(-n2c[n+](-c3c(C)cc(C)cc3C)c3c2C(=O)c2ccccc2C3=O)c(C)c1 [4[H][Cl], 1,3-dimesitylnaphthoquinimidazolium] on A549 lung cancer cells?
6.00

---

Test system: A549 lung cancer cells
experiment_summary: Cell proliferation (MTT assay) in A549 lung cancer cells
Type: cell-based, human
test_conditions: Homo sapiens, A549, Table 3, error = standard error from the mean; read-out: IC50 A549 lung
measured_attribute: IC50

Requested field: IC50. Item: Cc1cc(C)c(-n2c[n+](-c3c(C)cc(C)cc3C)c3c2C(=O)c2ccccc2C3=O)c(C)c1 [4[H][Cl], 1,3-dimesitylnaphthoquinimidazolium]
994 nM
